Recorded values, source the supplement of paper PMC10567573.

Reported protein stability index values are given for each entry in this list.
B1: RHOBTB3 (parent)
chain: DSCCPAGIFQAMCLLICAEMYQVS

Variants of: B1
test summary: protein stability index of a GFP-peptide fusion (GPS, HEK-293T) (PSI 1-6); higher = more stable;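 further: lentivirally expressed fusions sorted by FACS into six bins by GFP to DsRed ratio, PSI derived from sequencing read proportions per bin multiplied by bin number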
assay context: c terminus: a fixed tail appended

Here are 3 variants together with their reported answers.
ISCCPAGIFQAMCLLICAEMYQVS [D1I]: 2.69
DSCCPAGIFQAMCLLINAEMYQVS [C17N]: 3.58
DSCCPAGIFQAMCLLICAEMYQVP [S24P]: 4.65

Exercise: Supply measured protein stability index of DSCCPAFIFQAMCLLICAEMYQVS [G7F] in your reply.
Key: 2.49
